Molecular target: T1, human PTK7 protein (extracellular sequence of human PTK7 with C-terminal 6×His tag) (human, UniProt Q13308 31-704)
T1 construct: extracellular domain; Expressed transiently in HEK293 cells; also called human PTK7-His; human PTK7-His protein
T1 sequence: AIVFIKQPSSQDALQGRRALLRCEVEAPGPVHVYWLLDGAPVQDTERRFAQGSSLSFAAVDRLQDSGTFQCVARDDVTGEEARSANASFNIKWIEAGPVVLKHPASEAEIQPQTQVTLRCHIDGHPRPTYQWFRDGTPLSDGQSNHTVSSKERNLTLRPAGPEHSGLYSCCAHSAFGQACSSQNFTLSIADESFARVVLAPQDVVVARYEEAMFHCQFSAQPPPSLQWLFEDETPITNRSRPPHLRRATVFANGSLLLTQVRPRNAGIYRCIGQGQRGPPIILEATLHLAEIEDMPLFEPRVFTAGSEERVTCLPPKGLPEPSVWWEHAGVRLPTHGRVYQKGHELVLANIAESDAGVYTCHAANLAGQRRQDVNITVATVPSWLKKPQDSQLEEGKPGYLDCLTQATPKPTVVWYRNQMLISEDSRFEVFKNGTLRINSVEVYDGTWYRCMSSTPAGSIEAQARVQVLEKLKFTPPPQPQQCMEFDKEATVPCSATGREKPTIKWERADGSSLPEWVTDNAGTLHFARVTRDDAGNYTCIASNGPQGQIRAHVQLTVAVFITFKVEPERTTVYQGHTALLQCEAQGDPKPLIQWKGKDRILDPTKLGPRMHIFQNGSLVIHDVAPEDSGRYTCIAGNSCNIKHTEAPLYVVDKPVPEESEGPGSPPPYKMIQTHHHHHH
Assay: ELISA, coated human PTK7 protein 1 µg/ml
Procedure: Original data was imported into software for nonlinear curve fitting, and EC₅₀ of binding of each antibody to human PTK7 and monkey PTK7 was calculated, respectively. As shown in Table 1 and FIGS. 1A-1B, the screened antibodies could be bound to the human and monkey PTK7 proteins with affinity higher than that of the control antibody Hu24.
A collection of binders and their measured EC50
measuredAttribute: EC50 (µg/mL)

1) Hu24 (PTK7 control antibody, taken from Hu24 in the Patent CN201580030255) (antibody) chain 1: QVQLVQSGPEVKKPGASVKVSCKASGYTFTDYAVHWVRQAPGKRLEWIGVISTYNDYTYNNQDFKGRVTMTRDTSASTAYMELSRLRSEDTAVYYCARGNSYFYALDYWGQGTSVTVSS chain 2: EIVLTQSPATLSLSPGERATLSCRASESVDSYGKSFMHWYQQKPGQAPRLLIYRASNLESGIPARFSGSGSGTDFTLTISSLEPEDFAVYYCQQSNEDPWTFGGGTKLEIK :: 0.0457
2) 57F4 (anti-human PTK7 murine antibody) (antibody, V domains shown, Murine antibody purified from hybridoma supernatant on Protein A) VH: EVQLVESGGGLVKPGGSRKLSCAASGFTFSDYGMHWVRQAPEKGLEWVAYISSGSSALYYADTVKGRFTISRDNVKNTLFLQMTSLRSEDTAMYYCARRSYYSYFAYWGQGTLVTVSA VL: QIVLTQSPALMAASPGEKVTITCRVSSSISSSTLHWYQQKSETSPKPWIYGTSNLASGVPVRFSGSGSGTSYSLTISSMEAEDAATYYCQQWSSFPFTFGSGTKLEIK :: 0.0218
3) 101A6 (anti-human PTK7 murine antibody) (antibody, V domains shown, Murine antibody purified from hybridoma supernatant on Protein A) VH: EVKLVESGGGLVQPGGSLSLSCAASGFTFTDYYLSWVRQPPGKALEWLALIRNKANGYTTEYSASVKGRFTISRDSSQSILYLQMDALRAEDSATYYCARDTLAAYWGQGTSVTVSS VL: DIVMTQSHKFMSTSVGDRVSFTCKASQDVGSAVIWYQQKPGQSPKLLIYWASTRHTGVPDRFTGSGSGTDFTLTISNVQSEDLADYFCQQYSSYPLTFGAGTKLEIK :: 0.0131
4) 64A10 (anti-human PTK7 murine antibody) (antibody, V domains shown, Murine antibody purified from hybridoma supernatant on Protein A) VH: QVQLKESGPVLVAPSQSLSITCTVSGFSLTSYGVYWVRQPPGKGPEWLGVIWTSGNTNYNSALMSRLSISKDNSKSQVFLKMNSLQTDDTAMYYCVKHDGGNYVGVMNYWGQGTSVTVSS VL: DIQMTQSPATLSVTPGDRVSLSCRASQSISDYLHWYQQKSQESPRLLIKYASQSISGIPSRFSGSGSGSDFTLSINSVEPEDVGVYYCQNGHSFPPTFGGGTKLEIK :: 0.0132
